Tested on: Thyroperoxidase (TPO), gene 54314
Test summary: CCTE_Simmons_AUR_rTPO: CCTE's Amplex UltraRed Assay for Thyroperoxidase (TPO) Inhibition, Simmons Lab (AID 2283662)
Activity calls are given as the source filed them. The calls were made as follows: active = hit-call score of the fitted dose curve at least 0.9, where 1 is the maximum; inconclusive = response in the unintended direction; inactive = score below 0.9.
Would you mind answering with one of these outcomes? 1 for active, 0 for inactive

Solved cases below.
- Chem smiles: "N#Cc1ccc(C(c2ccc(C#N)cc2)n2cncn2)cc1"
  Qualitative label: 0
- Chem smiles: "CC(C)(c1ccccc1)c1ccc(Nc2ccc(C(C)(C)c3ccccc3)cc2)cc1"
  Qualitative label: 1

Prompt: Tell me the recorded outcome of this test for O=S(=O)(O)c1ccc(N=Nc2c(O)ccc3ccccc23)cc1 .
Response: 0

Prompt: Returns: the outcome recorded for O=c1c(O)c(-c2ccc(O)cc2O)oc2cc(O)cc(O)c12 in this assay.
Response: 1

Prompt: Write down the call the test reported for this molecule. Item: CCCCCCCCCC[N+](C)(CCCCCCCCCC)CCC[Si](OC)(OC)OC
Response: 1

Prompt: For CCCCC1C(=O)N(c2ccccc2)N(c2ccccc2)C1=O , which call appears in the assay record?
Response: 1

Prompt: Hi, sorry to bother you, what did the test record for CCCCCCOc1ccc(N)cc1 ?
Response: 1

Prompt: Assay result, entry C/C=C/C=C/CCCCCCCO — outcome?
Response: 1
